Recorded values, source the nanobody polyreactivity screen of Harvey et al. (2022).

experiment: yeast display, Sf9 membrane polyspecificity reagent, FACS + sequencing; frameworks hold sequencing errors
Reported Property: polyreactivity (PSR sort gate)

sequence_code=QVQLVDSGGGLVQAGGSLRLTCAASGSIFDRYAMGWYRQAPGKERELVAAITGRGTSTYYADSVKGRFTISRDNAKNTVYLQMNSLKPEETAVYYCATPFWSRPAQDEYDYWGQGTQVTVSS value_observed="high polyreactivity"
sequence_code=QVQLVESGGGLVQAGGSLRLSCAASGFIFNLYAMGWYRQAPGKERELVAVITGSGVRTYYADSVKGRFTISRDNAKNTVYLQMNSLKPEDTAVYYCAARTYGGYEYWGQGTQVTVSS value_observed="high polyreactivity"

###

assay: yeast display, Sf9 membrane polyspecificity reagent, FACS + sequencing; frameworks hold sequencing errors
Reported Property: polyreactivity (PSR sort gate)

These recorded examples may help you get a feel for the data.
sequence_code=QVQLVESGGGLVQAGGSLRLSCAASGRTFAYNTMGWYRQAPGKERELVARINSGTSTYYADSVKGRFTISRDNAKNTVYLQMNRLKPEDTAVYYCNAYSWYGYDYWGQGTQVTVSS reported_property="polyreactivity (PSR sort gate)" value_observed="high polyreactivity"
sequence_code=QVQLVESGGGLVQAGGSLRLSCAASGRIFRLYAMGWYRQSPGKERELVATITSGGTYYADSVKGRFTISRDNAKNTVYLQMNSLKPEDTAVYYCTARRRLRYDYWGQGTQVTVSS reported_property="polyreactivity (PSR sort gate)" value_observed="low polyreactivity"
sequence_code=QVQLVESGGGLVQAGGSLRLSCAASGSTFISYAMGWYRQAPGKERELVAAISSGGGRTSYADSVKGRFTISRDNAKNTVYLQMNSLKPEDTAVYYCNTKKLPYAEGYWGQGTQVTVSS reported_property="polyreactivity (PSR sort gate)" value_observed="low polyreactivity"
sequence_code=QVQLVESGGGLVQAGGSLRLSCAASGSIFTKYAMGWYRQAPGKERELVAAISKTGGSTYYADSVKGRFTISRDTAKNTVYLQMNSLKPEDTAVYYCNAAGGYSVYKRGRDYWGQGTQVTGSS reported_property="polyreactivity (PSR sort gate)" value_observed="high polyreactivity"

For the sequence QVQLVESGGGLFQAGGSLRLSCAASGITFPDYAMGWYRQAPGKERELVATISSSGGNTYYADSVKGRFTISRDNAKNTVYLQMNSLKPEDTAVYYCATVSYYLGYDYWGQGTQVTVSS , report polyreactivity (PSR sort gate). low polyreactivity

###

experiment: yeast display, Sf9 membrane polyspecificity reagent, FACS + sequencing; frameworks hold sequencing errors
Reported Property: polyreactivity (PSR sort gate)

sequence_code=QVQLVYSRRGLVQAGGSLRLSCAASGLIFAWYAIGWYRQATVNVRELVATISWNGDRTYYADSVKGRFTIARDNGKTSVYLQINSLQAEDTAVYYCAAYSVFRSYDYWGQGTQVTVSS value_observed="high polyreactivity"
sequence_code=HVQLQESGGGLVQAGGSLRLSCAASGNISYSRNMGWYRQAPGKERELVAAIDRGAITYYADSVKGRFTISRDNAKNTVYLQIYSLKPEDTAVYYCAAEYHDRWDHRYWGQGTQVTVSS value_observed="high polyreactivity"
sequence_code=QVQLVESGGGLVQAGGSLRLSCAASGSTFIPNAMGWYRQAPGKERELVAAITYRGGRTYYADSVKGRFTISRDNAKYTVYLQLNSLKPEDTAVYYCAADFWYNQVRFYYWGQGTQVTVSS value_observed="high polyreactivity"

###

assay: yeast display, Sf9 membrane polyspecificity reagent, FACS + sequencing; frameworks hold sequencing errors
Reported Property: polyreactivity (PSR sort gate)

Use these answered entries as a reference point.
sequence_code=QVQLVESGGGLVQAGGSLRLSCAASGSTFNDYAMGWYRQAPGKERELVAGITWRGTSTYYADSVKGRFTISRDNAKNTVYLQRNSLKPEDTAVYYCAADVYYLLWLWMDYWGQGTQVTVSS reported_property="polyreactivity (PSR sort gate)" value_observed="low polyreactivity"
sequence_code=QVQRVESGGGLVQAGGSLRLSCAASASIFASYAMGWYRQAPGKERELVASISRGGGTTYADSVKGRFTISRDNAKNTVYLQMNSLKPDDTAVYYCAARKVIRYRPYGYWGQGTQVTVSS reported_property="polyreactivity (PSR sort gate)" value_observed="high polyreactivity"
sequence_code=QVQLVESGGGLVQAGGSLRLSCAASGSIFTRYTMGWYRQAPGKERELVAVISDSSGRTYYADSVKGRFTISRDNGKNTVYLQMNSLKPEDTAVYYCAAEYSDIYEYWGQGTQVTVSS reported_property="polyreactivity (PSR sort gate)" value_observed="low polyreactivity"
sequence_code=QVQLVESGGGLVQAGGSLRLSCAPSGFIFYGYAMGWYRPAPGKERELVAAISRRGGSTYYADSVKGRFTISRDDAKNSVYLQMNSLKPEDTAVYYCAATYEVNYRKYGYWGQGTQVTVSS reported_property="polyreactivity (PSR sort gate)" value_observed="high polyreactivity"

Query polyreactivity (PSR sort gate) for QVQLVESGGGLVQAGGSLRLSCAASGFTFHYNAMGWYRQAPGKEREFVAAISGSGDRTYYADSVKGRFTISRDNAKNTVYLQMNSLKPEDTAVYYCATSVRQNYFYSYDYWGQGTQVTVSS high polyreactivity

###

assay: yeast display, Sf9 membrane polyspecificity reagent, FACS + sequencing; frameworks hold sequencing errors
Reported Property: polyreactivity (PSR sort gate)

Here is how some sequences turned out for polyreactivity (PSR sort gate).
sequence_code=QVQLVESGGGLVQAGGSLRLSCAASGSIFVRNAMGWYRQAPGKERELVAAITYSGSRTYYADSVKGRFTISRDNAKNTVYLQMNSLKPEDTEVYYCAKVRVLVDKWSTFYEYYYWGQGTQVTVSS value_observed="low polyreactivity"
sequence_code=QVQLVESGGALVQAGGSLRLSLADSGMTFSQNAMGWYRQAPGKERELVAAISSSGTSTYYADSVKGRFTISRDNAKNTVYLQMNSLKPEDTAVYYCNAPPGTFQWQGHSDYWGQGTQVTVSS value_observed="low polyreactivity"
sequence_code=QVQLVESVGGFVQAGGSLRLSGAASGRTFNFNTMGWSRQAPGKERELVASITSGGSTNYADSVKVRFTISRDNAKNTVYLQMNILKPEDPAVYYCAVTVSGPYAYDYWGQGTQVTVSS value_observed="low polyreactivity"
sequence_code=QVQLVESGGGLVQAGGSLRLSCAASGIIFWLYAMGWYRQAPGKERELVAAINWSGSTTYYADSVKGRFTISRDNAKNTVYLQMNSLKPEDTAVYYCAASRVRAYYYTSSLRRYYYWGQGTQVTVSS value_observed="high polyreactivity"
sequence_code=QVQLVESGGGLVQAGGILRLSCAASGRTFVLNAMGRYRQAPGKERELVAAITSGGSTYYADSVKGRFTISRDNAKNTVYLQMNMLKPEDTAVYYCAVTYKGDSSWPGDYWGQCTQVTVSS value_observed="low polyreactivity"

Fill in reported polyreactivity (PSR sort gate) for this entry: QVQLVESGGGLVQAGGSLRLSCAASGITFVYYTMGWYRQAPGKERELVASITWDGGSTYYADSVKGRFTISRDNAKNTVYLQMNSLKPEDTAVYYCNRDRVSGGKYNYWGQGTQVTVSS low polyreactivity

Please look at this sequence and report its polyreactivity (PSR sort gate): QVQLVESGGGLVQAGGSLRLSCAASGSTFGVNARGWYRQAPGKERELVAGITWTGGSSYYADSVKGRFTISRDNAKNTVYLQMNSLKPEDTAVYYCAKDWYSSYYDDSEDSWGQGTQVTVSS low polyreactivity

Supply recorded polyreactivity (PSR sort gate) for QVQLVESGGGLVQAGGSLRLSCAASGFIFGYNAMGWYRQAAGKERELVAAISYSGGGTYYADSVKGRFTISRDNAKNTVYLQMNSLKPEDTAVYYCAARSWGRRSYDYWGQGTQVTVSS here. high polyreactivity

Fill in reported polyreactivity (PSR sort gate) for this entry: QVQLVESGGGLVQAGGSLRLSCAASGFTFGHYAMGWYRQAPGKERELVAAISIDGGRTYYADSVKGRFTISRDNAKNTVYLQMNSLKPEDTAVYYCAAAVAGRKMGYWGQGTQVTVSS high polyreactivity

Report measured polyreactivity (PSR sort gate); entry is QVQLVESGGGLVQAGGSLRLSCAASGRIFYGYTMGWYRQAPGKERELVAAISSSGGSTYYADSVKGRFTISRDNAKNTVYLQMNSLIPEDTAVYYCAAYVPYSPYHVEFNYWGQGTQVTVSS high polyreactivity

###

test: yeast display, Sf9 membrane polyspecificity reagent, FACS + sequencing; frameworks hold sequencing errors
Reported Property: polyreactivity (PSR sort gate)

sequence_code=QVQLVESGGGLVQAGGSLRLSCAASGNIFETNAMGWYRQAPVKERELVAAISASGGSTYYADSVKGRFTISRDNAKNNVYLQMNSLKPEDTAVYYCNDRVDSYYGDAFDYWGQGTQVTVSS reported_property="polyreactivity (PSR sort gate)" value_observed="high polyreactivity"
sequence_code=QVQVVESGGGLVQAGGSLRLSCASSGRTFGIYAMGWYRPAPGKESEWVASISWSGGRTYYADSVKGRFTISRDNAKNTVYLVMISLKPEDTAVYFCAARWYYVTPLRRYGYWGQGTQVTVSS reported_property="polyreactivity (PSR sort gate)" value_observed="high polyreactivity"
